The reported measurements were obtained from ChEMBL document CHEMBL5291721.

So I've got a bunch of molecules here, and I need their AC50 values.

Request: AC50, test system Melanocortin receptor 3 (Homo sapiens, UniProt P41968), entry OCCOCCN1CCN(C(c2ccccc2)c2ccc(Cl)cc2)CC1 (stereo not given) [HYDROXYZINE]; also: assay procedure not described here
> 30 µM

Request: AC50, test system Melanocortin receptor 3 (Homo sapiens, UniProt P41968), entry COc1ccc(C(Cl)=C(c2ccc(OC)cc2)c2ccc(OC)cc2)cc1; also: assay procedure not described here
> 30 µM

Request: AC50, test system Melanocortin receptor 3 (Homo sapiens, UniProt P41968), entry CCOc1ccccc1OCCN[C@H](C)Cc1ccc(OC)c(S(N)(=O)=O)c1; also: assay procedure not described here
> 30 µM

Request: AC50, test system Melanocortin receptor 3 (Homo sapiens, UniProt P41968), entry COC(=O)CCc1ccc(OCC(O)CNC(C)C)cc1 (stereo not given); also: assay procedure not described here
> 30 µM

Request: AC50, test system Melanocortin receptor 3 (Homo sapiens, UniProt P41968), entry CCN(CCO)CCCC(C)Nc1ccnc2cc(Cl)ccc12 (stereo not given) [HYDROXYCHLOROQUINE]; also: assay procedure not described here
> 10 µM

Request: AC50, test system Melanocortin receptor 3 (Homo sapiens, UniProt P41968), entry O=C(O)[C@H]1/C(=C/CO)O[C@@H]2CC(=O)N21; also: assay procedure not described here
> 30 µM

Request: AC50, test system Melanocortin receptor 3 (Homo sapiens, UniProt P41968), entry CN(C)CCOC(=O)C(c1ccccc1)C1(O)CCCC1 (stereo not given) [CYCLOPENTOLATE]; also: assay procedure not described here
> 10 µM

Request: AC50, test system Melanocortin receptor 3 (Homo sapiens, UniProt P41968), entry CC(=O)Oc1ccccc1C(=O)O; also: assay procedure not described here
> 30 µM

Request: AC50, test system Melanocortin receptor 3 (Homo sapiens, UniProt P41968), entry NCC1(CC(=O)O)CCCCC1; also: assay procedure not described here
> 30 µM

Request: AC50, test system Melanocortin receptor 3 (Homo sapiens, UniProt P41968), entry CC(C)C[C@H](NC(=O)[C@H](Cc1ccccc1)NC(=O)c1cnccn1)B(O)O; also: assay procedure not described here
> 30 µM
